system: canine TRPM8 (Canis lupus familiaris, UniProt Q1A7N1)
Construct: expressed in transfected cells
Sequence (Q1A7N1 1-1104): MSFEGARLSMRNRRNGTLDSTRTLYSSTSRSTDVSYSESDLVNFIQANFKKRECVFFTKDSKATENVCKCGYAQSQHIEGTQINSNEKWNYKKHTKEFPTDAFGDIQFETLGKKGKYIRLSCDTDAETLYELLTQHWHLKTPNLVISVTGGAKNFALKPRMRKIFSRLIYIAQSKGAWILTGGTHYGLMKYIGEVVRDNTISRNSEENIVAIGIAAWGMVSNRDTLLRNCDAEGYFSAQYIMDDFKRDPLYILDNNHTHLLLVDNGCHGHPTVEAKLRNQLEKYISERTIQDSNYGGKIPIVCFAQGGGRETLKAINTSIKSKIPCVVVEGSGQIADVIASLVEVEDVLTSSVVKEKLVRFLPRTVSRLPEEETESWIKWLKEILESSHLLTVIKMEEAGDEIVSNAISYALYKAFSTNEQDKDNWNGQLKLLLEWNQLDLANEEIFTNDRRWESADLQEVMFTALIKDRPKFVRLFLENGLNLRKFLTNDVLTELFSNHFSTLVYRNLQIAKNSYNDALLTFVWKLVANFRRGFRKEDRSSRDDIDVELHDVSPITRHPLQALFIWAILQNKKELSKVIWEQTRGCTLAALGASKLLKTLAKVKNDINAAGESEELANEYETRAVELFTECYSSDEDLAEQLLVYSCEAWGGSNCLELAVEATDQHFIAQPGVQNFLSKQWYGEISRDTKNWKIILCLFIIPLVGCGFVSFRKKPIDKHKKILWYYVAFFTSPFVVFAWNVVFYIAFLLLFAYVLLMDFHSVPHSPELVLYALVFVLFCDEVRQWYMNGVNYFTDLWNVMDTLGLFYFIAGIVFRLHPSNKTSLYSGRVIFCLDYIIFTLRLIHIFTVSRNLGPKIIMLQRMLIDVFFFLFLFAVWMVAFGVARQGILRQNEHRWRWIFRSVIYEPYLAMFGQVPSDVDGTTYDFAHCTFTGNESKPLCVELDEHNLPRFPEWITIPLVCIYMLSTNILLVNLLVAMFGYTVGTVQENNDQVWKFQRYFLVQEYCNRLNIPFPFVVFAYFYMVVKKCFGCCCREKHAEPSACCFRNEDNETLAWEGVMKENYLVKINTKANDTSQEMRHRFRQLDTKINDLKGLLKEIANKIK
protocolDetails: In vitro canine TRPM8 functional assay (icilin-induced intracellular Ca2+ increase, FLIPR/FDSS)
Assay type: cell-based
statedConditions: 0.2 μM compound; HEK293 canine TRPM8; Table 6
readout: % Inh @ 0.2 μM (%)

(1) Cc1cc2c(cc1C)n(Cc1ccc(OC(F)(F)F)cc1)c(=NS(=O)(=O)c1ccccc1)n2C
(2) CC(C)n1c(=NS(=O)(=O)c2ccccc2)n(Cc2ccc(OC(F)(F)F)cc2)c2cc(Cl)ccc21
(3) Cn1c(=NS(=O)(=O)c2ccccc2)n(Cc2ccc(F)cc2)c2ccccc21
(4) CCn1c(=NS(=O)(=O)c2ccccc2)n(Cc2ccc(OC(F)(F)F)cc2)c2cc(F)ccc21
sort_by: % Inh @ 0.2 μM; order: ascending; scope: items listed above Write the labels out in the order the request specifies. 1, 3, 4, 2
(1: 5%, 3: 20%, 4: 36%, 2: 66%)
